Recorded values, source patent US10053453B2.

log10(IC50), Human BACE1 (Homo sapiens, UniProt P56817), per-entry values.
Would you kindly interpret these values as log10 of IC50 expressed in nM?

Compound	log10(IC50)
CO[C@H]1CC[C@]2(CC1)Cc1ccc(-c3cncnc3)cc1[C@@]21COC(N)=N1 [Compound 47]	2.18
[2H]C1([2H])OC(N)=NC12c1cc(-c3cc(C#N)cc(OC)c3)ccc1C[C@@]21C[C@@H](C)[C@H](OC)[C@@H](C)C1 (stereo partly shown) [Compound 32]	0.86
[2H]C([2H])([2H])O[C@@H]1CC[C@]2(Cc3ccc(-c4cncc(C#N)c4)cc3[C@]23N=C(N)OC3([2H])[2H])C[C@H]1C [Compound 108]	1.75
CO[C@H]1CC[C@]2(CC1)Cc1ccc(C#CC(C)C)cc1C21COC(N)=N1 (stereo partly shown) [Compound 12]	2.13
[2H]C1([2H])OC(N)=N[C@]12c1cc(-c3cccnc3)ccc1C[C@]21CC[C@@H](OC)CC1 [Compound 117]	2.53

Req: Report log10(IC50) on Human BACE1 (Homo sapiens, UniProt P56817) for this entry: [2H]C1([2H])OC(N)=N[C@]12c1cc(-c3cncc(Cl)c3)ccc1C[C@]21CC[C@@H](OC)[C@H](C)C1 [Compound 34]
Sequence (P56817 22-460): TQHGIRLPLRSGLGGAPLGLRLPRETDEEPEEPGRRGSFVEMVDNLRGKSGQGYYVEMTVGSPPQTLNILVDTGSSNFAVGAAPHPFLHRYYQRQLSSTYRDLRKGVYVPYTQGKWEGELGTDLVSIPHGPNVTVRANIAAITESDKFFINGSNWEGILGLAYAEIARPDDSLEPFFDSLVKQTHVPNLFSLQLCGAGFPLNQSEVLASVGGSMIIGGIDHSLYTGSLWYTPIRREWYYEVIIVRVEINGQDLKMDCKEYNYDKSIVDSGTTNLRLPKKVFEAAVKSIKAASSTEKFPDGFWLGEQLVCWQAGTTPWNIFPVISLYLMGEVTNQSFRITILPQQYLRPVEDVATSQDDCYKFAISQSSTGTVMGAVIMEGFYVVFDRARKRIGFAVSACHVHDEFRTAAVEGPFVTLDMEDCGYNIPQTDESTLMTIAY
Resp: 1.07

Req: Report log10(IC50) on Human BACE1 (Homo sapiens, UniProt P56817) for this entry: [2H]C1([2H])OC(N)=NC12c1cc(-c3cc(Cl)cc(C#N)c3)ccc1C[C@@]21C[C@@H](C)[C@H](OC)[C@@H](C)C1 (stereo partly shown) [Compound 52]
Resp: 0.67

----------
system: SH-SY5Y cells; assay: sAPPβ release assay; details: Homo sapiens, SH-SY5Y, read-out: IC50 Cell (sAPPβ release, nM), SH-SY5Y cells, compounds incubated 16-17 h
Endpoint label: IC50 (nM)
Write the answer as a number in nM, unit excluded.

Known IC50 results, listed for orientation:
Compound	Target system	Endpoint label	Quantitative readout
[2H]C1([2H])OC(N)=NC12c1cc(-c3cc(C#N)cc(OC)c3)ccc1CC2(C)C1CCOCC1 (stereo not shown) [Compound 89]	SH-SY5Y cells	IC50	889
[2H]C1([2H])OC(N)=NC12c1cc(-c3ccnc(O)c3)ccc1C[C@@]21CC[C@H](OC)[C@@H](C)C1 (stereo partly shown) [Compound 111]	SH-SY5Y cells	IC50	89
CO[C@H]1CC[C@]2(CC1)Cc1ccccc1C21COC(N)=N1 (stereo partly shown) [Compound 64]	SH-SY5Y cells	IC50	307

Req: Please give the documented IC50 of [2H]C1([2H])OC(N)=N[C@]12c1cc(-c3cccc(Cl)c3)ccc1C[C@@]21CC[C@H](OC)[C@@H](C)C1 [Compound 27]
Resp: 2.8

----------
The compounds listed here are annotated with their IC50.
tested on: SH-SY5Y cells; test: sAPPβ release assay; details: Homo sapiens, SH-SY5Y, read-out: IC50 Cell (sAPPβ release, nM), SH-SY5Y cells, compounds incubated 16-17 h

Known IC50 results, listed for orientation:
Compound	Result
[2H]C([2H])([2H])O[C@H]1CC[C@@]2(Cc3ccc(-c4cncc(F)c4)cc3[C@]23N=C(N)OC3([2H])[2H])C[C@@H]1C [Compound 66]	< 0.16 nM
[2H]C1([2H])OC(N)=NC12c1cc(/C(C)=N/OCC)ccc1C[C@]21CC[C@@H](OC)CC1 (stereo partly drawn) [Compound 65]	> 5000 nM

Then there is this compound:
Req: Report IC50 on SH-SY5Y cells for this entry: [2H]C1([2H])OC(N)=N[C@]12c1cc(-c3cncnc3C)ccc1C[C@]21CC[C@@H](OC)CC1 [Compound 116]
Resp: 26 nM
